Test: everolimus arterial tissue concentration in and next to the stented vessel
Format: in vivo, swine
Conditions: swine, arterial tissue of stented region, 1070 μg, swine; 8.0×28 mm stent, group 2, 1070 μg Lot #2; 90 days; read-out: drug concentration in tissue of stented region
observable: concentration at 90 days (ng/g)
# number only, unit ng/g dropped from output

Task item: Fill blank: measured concentration at 90 days of the compound CO[C@H]1C[C@@H]2CC[C@@H](C)[C@@](O)(O2)C(=O)C(=O)N2CCCC[C@H]2C(=O)O[C@H]([C@H](C)C[C@@H]2CC[C@@H](OCCO)[C@H](OC)C2)CC(=O)[C@H](C)/C=C(\C)[C@@H](O)[C@@H](OC)C(=O)[C@H](C)C[C@H](C)/C=C/C=C/C=C/1C [everolimus, 40-O-(2-hydroxyethyl)-rapamycin] is ____.
Reply: 1270

Recorded values, source patent US9358096B2.
